measurement.target: UniProt:P17752
Sequence (P17752 whole entry): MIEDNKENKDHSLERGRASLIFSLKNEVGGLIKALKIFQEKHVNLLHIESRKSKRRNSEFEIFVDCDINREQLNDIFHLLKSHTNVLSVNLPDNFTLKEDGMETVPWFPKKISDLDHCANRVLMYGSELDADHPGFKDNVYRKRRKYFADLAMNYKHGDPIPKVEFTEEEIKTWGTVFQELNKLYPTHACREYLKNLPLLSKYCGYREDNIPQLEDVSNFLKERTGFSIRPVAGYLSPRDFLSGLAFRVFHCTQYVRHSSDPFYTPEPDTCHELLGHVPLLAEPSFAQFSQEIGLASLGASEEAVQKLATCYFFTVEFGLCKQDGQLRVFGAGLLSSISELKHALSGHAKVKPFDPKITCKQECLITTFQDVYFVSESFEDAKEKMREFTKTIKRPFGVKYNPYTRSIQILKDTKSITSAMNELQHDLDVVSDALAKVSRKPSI
assay.text: biochemical
measured.quantity: IC50 (nM)

Field: example entries. Status: answers known.
COc1ccc(C2c3c(nc4cc(C(F)(F)F)ccn34)CCN2C(=O)COc2ccccc2C)cc1OC (stereo not shown)
153
O=C(COc1ccc(N2CCOCC2)nc1Cl)N1CCc2nc3ncccn3c2C1c1ccc(C2CC2)cc1F (stereo not shown)
56
O=C(COc1ccc2ccccc2c1)N1CCc2nc3cc(C(F)(F)F)ccn3c2C1c1ccc2c(c1)OCO2 (stereo not shown)
150
COc1ncc(C2c3c(nc4cc(C(F)(F)F)ccn34)CCN2C(=O)COc2ccc3ccccc3c2)cn1 (stereo not shown)
67
Cc1ncc(C2c3c(nc4cc(C(F)(F)F)ccn34)CCN2C(=O)COc2ccc3ccccc3c2)cn1 (stereo not shown)
161

(1) O=C(COc1ccc2ccccc2c1)N1CCc2nc3cc(C(F)(F)F)ccn3c2C1c1cc(-c2ccccc2)on1 (stereo not shown)
(2) COc1ccc(C2c3c(nc4cc(C(F)(F)F)ccn34)CCN2C(=O)COc2ccc(CN3CCOCC3)c(C)c2C)c(F)c1 (stereo not shown)
(3) COc1ccc(C2c3c(nc4cc(Cl)ccn34)CCN2C(=O)COc2ccc(Cl)cc2Cl)cc1OC (stereo not shown)
(4) COc1ccc(C2c3c(nc4cc(C(F)(F)F)ccn34)CCN2C(=O)COc2ccc3ccccc3c2)c(F)c1 (stereo not shown)
(5) COc1ccc(C2c3c(nc4cc(C(F)(F)F)ccn34)CCN2C(=O)COc2cccc(C(F)(F)F)c2)cc1OC (stereo not shown)
## Task Please list these compounds in decreasing order of IC50. Use the labels to give the requested order.
## Result 5, 1, 3, 2, 4
